# protocol.summary: Selectivity index, ratio of IC50 for rat L6 cells to IC50 for Plasmodium falciparum K1
# Format: toxicity, cell-based
# experimental.parameters: L6 cells, read-out: Ratio IC50
endpoint: selectivity ratio
Give bare numbers.

Some solved cases for reference:
- substance.smiles: "Cl.Cl.c1cc(-c2ccc(C3=NCCN3)cc2)cc(-c2ccc(C3=NCCN3)cc2)c1"
  selectivity ratio: 35
- substance.smiles: "Cl.Cl.N=C(Nc1ccc(-c2cccc(-c3cccc(NC(=N)c4ccccn4)c3)c2)cc1)c1ccccn1"
  selectivity ratio: 13
- substance.smiles: "N=C(N)c1cccc(-c2cc(Cl)cc(-c3cccc(C(=N)N)c3)c2)c1"
  selectivity ratio: 944
- substance.smiles: "Cl.Cl.N=C(N)c1ccc(-c2cccc(-c3ccc(C(=N)N)nc3)c2)cn1"
  selectivity ratio: 1480

Below are 4 molecules. Give each one its selectivity ratio.
1. COc1cc(-c2ccc(C(=N)N)cc2)cc(-c2ccc(C(=N)N)cc2)c1.Cl.Cl
2. CC(C)Oc1ccc(NC(=N)c2ccccn2)cc1-c1cc(Cl)cc(-c2ccccc2)c1
3. CO/N=C(\N)c1cccc(-c2cccc(-c3cccc(/C(N)=N\OC)c3)c2)c1.Cl.Cl
4. Cl.Cl.Cl.N=C(Nc1ccc(-c2cc(Cl)cc(-c3cccc(NC(=N)c4ccccn4)c3)c2)cc1)c1ccccn1

1. 693
2. 1
3. 2
4. 12

----------
# protocol.summary: Selectivity index, ratio of IC50 for rat L6 cells to IC50 for Trypanosoma brucei rhodesiense STIB900
# Format: toxicity, cell-based
# experimental.parameters: L6 cells, read-out: Ratio IC50
Under this convention, 1.0 denotes selectivity ratio strictly below 500 and 0.0 denotes selectivity ratio at or above 500.

Does the reported selectivity ratio of the following compound sit strictly below 500? CO/N=C(/N)c1ccc(-c2cccc(-c3ccc(/C(N)=N\OC)cc3)c2)cc1.Cl.Cl
1.0

I'd appreciate it if you could check whether Cl.Cl.N=C(N)c1ccc(-c2cccc(-c3ccc(C(=N)N)nc3)c2)cn1 has selectivity ratio smaller than 500.
0.0

Does the reported selectivity ratio of the following compound sit strictly below 500? Cl.Cl.N=C(Nc1ccc(-c2cccc(-c3cccc(NC(=N)c4ccccn4)c3)c2)cc1)c1ccccn1
1.0

hey, is selectivity ratio for Cl.Cl.N=C(N)c1ccc(-c2cc(-c3ccc(C(=N)N)cc3)cc([N+](=O)[O-])c2)cc1 lower than 500 or not?
0.0

----------
Consider the following compounds; for each one, report its IC50.
# Tested on: L6
# protocol.summary: Cytotoxicity against rat L6 cells after 72 hrs by Alamar Blue assay
# Type: cell-based
# experimental.parameters: L6, 72 h
Numbers only, in µM.

- substance.smiles: "Cl.Cl.N=C(N)c1ccc(-c2cccc(-c3cccc(C(=N)N)c3)c2)cc1"
  test.value: 28.5
- substance.smiles: "N=C(N)c1cccc(-c2cc(Cl)cc(-c3cccc(C(=N)N)c3)c2)c1"
  test.value: 30.9

Dear reader, for each entry below, please note its IC50.
1. Cl.Cl.Cl.N=C(Nc1ccc(-c2cc(Cl)cc(-c3cccc(NC(=N)c4ccccn4)c3)c2)cc1)c1ccccn1
2. Cl.Cl.Cl.N=C(Nc1cccc(-c2cc(Cl)cc(-c3cccc(NC(=N)c4ccccn4)c3)c2)c1)c1ccccn1
3. CO/N=C(\N)c1cccc(-c2cccc(-c3cccc(/C(N)=N\OC)c3)c2)c1.Cl.Cl

2.64
2.5
20.3

----------
For each record, write down the corresponding IC50.
# Tested on: L6
# protocol.summary: Cytotoxicity against rat L6 cells after 72 hrs by Alamar Blue assay
# Type: cell-based
# experimental.parameters: L6, 72 h
Numbers only, in µM.

- substance.smiles: "COc1cc(-c2cccc(C(=N)N)c2)cc(-c2cccc(C(=N)N)c2)c1.Cl.Cl"
  IC50 [µM]: 137
- substance.smiles: "COc1cc(-c2ccc(C(=N)N)cc2)cc(-c2ccc(C(=N)N)cc2)c1.Cl.Cl"
  IC50 [µM]: 33
- substance.smiles: "Cl.Cl.N/C(=N\\O)c1cccc(-c2cccc(-c3cccc(/C(N)=N\\O)c3)c2)c1"
  IC50 [µM]: 5.6
- substance.smiles: "Cl.Cl.N=C(N)c1cccc(-c2cccc(-c3cccc(C(=N)N)c3)c2)c1"
  IC50 [µM]: 125
- substance.smiles: "Cl.Cl.N=C(N)c1ccc(-c2cccc(-c3ccc(C(=N)N)cc3)c2)cc1"
  IC50 [µM]: 31.2

Please go through the list and note IC50 for each compound.
1. Cl.Cl.N=C(Nc1ccc(-c2cccc(-c3cccc(NC(=N)c4ccccn4)c3)c2)cc1)c1ccccn1
2. N=C(Nc1ccc(-c2cccc(-c3cccc(NC(=N)c4ccccc4)c3)c2)cc1)c1ccccc1
3. Cl.Cl.c1cc(-c2ccc(C3=NCCN3)cc2)cc(-c2ccc(C3=NCCN3)cc2)c1
4. CC(C)NC(=N)c1ccc(-c2cccc(-c3ccc(C(=N)NC(C)C)cc3)c2)cc1.Cl.Cl
5. CC1(C)CN=C(c2cccc(-c3cccc(-c4cccc(C5=NCC(C)(C)CN5)c4)c3)c2)NC1
6. c1cc(C2=NCCN2)cc(-c2cccc(-c3cccc(C4=NCCN4)c3)c2)c1
7. N=C(N)c1ccc(-c2cc(Cl)cc(-c3cccc(C(=N)N)c3)c2)cc1
8. Cl.Cl.Cl.N=C(N)c1ccc(-c2cc(Cl)cc(-c3ccc(C(=N)N)cc3)c2)cc1

1: 2.72; 2: 2.52; 3: 2.55; 4: 102; 5: 56.6; 6: 31.7; 7: 12.7; 8: 21.9

Which measured IC50 value corresponds to CO/N=C(/N)c1ccc(-c2cccc(-c3ccc(/C(N)=N\OC)cc3)c2)cc1.Cl.Cl ?
19.2
